Numbers sourced from patent US4839355A.

Let's look at some molecules and their measured MIC.
Test system: Streptococcus pneumoniae
Assay: In vitro antimicrobial activity, microplate dilution MIC, Streptococcus pneumoniae
Format: cell-based
Details: 10^5 microorganism/ml, 10% horse serum in BHI broth, read-out: MIC (minimal inhibitory concentration), SP
# output: bare number, implied unit µg/mL

Worked cases, answers included:
molecule	system	unitOfMeasurement	MIC
Cc1cc(-c2c(F)cc3c(=O)c(C(=O)O)cn4c3c2OC[C@@H]4C)cc(C)n1 [B]	Streptococcus pneumoniae	µg/mL	0.03
CCn1cc(C(=O)O)c(=O)c2cc(F)c(-c3cc(C)nc(C)c3)cc21 [Q, reference compound]	Streptococcus pneumoniae	µg/mL	0.25
CC1COc2c(N3CCN(C)CC3)c(F)cc3c(=O)c(C(=O)O)cn1c23 (stereo not drawn) [P, reference compound]	Streptococcus pneumoniae	µg/mL	0.25
Cc1cc(-c2c(F)c(F)c3c(=O)c(C(=O)O)cn4c3c2OC[C@@H]4C)cc(C)n1 [A]	Streptococcus pneumoniae	µg/mL	0.06
Cc1cc(-c2c(F)cc3c(=O)c(C(=O)O)cn4c3c2SC[C@@H]4C)cc(C)n1 [D]	Streptococcus pneumoniae	µg/mL	0.016

Here is the next item to consider.
Input CC[C@H]1COc2c(-c3cc(C)nc(C)c3)c(F)cc3c(=O)c(C(=O)O)cn1c23 [Compound C] . Output MIC: 0.06

----------
System: Staph. aureus
Test: In vivo antibacterial activity in female mice, Staph. aureus infection
Design: species or system Staphylococcus aureus
Details: Staphylococcus aureus, 168 h; mouse; po, one-half hour postinfection; deaths over seven days; read-out: PD50 (fifty percent protective dose), Staph. aureus, po
measurementType: ED50 (mg/kg)
# output: bare number, implied unit mg/kg

compound	unitOfMeasurement	ED50
CC1COc2c(N3CCN(C)CC3)c(F)cc3c(=O)c(C(=O)O)cn1c23 (stereo not drawn) [P, reference compound]	mg/kg	6.5
Cc1cc(-c2c(F)cc3c(=O)c(C(=O)O)cn4c3c2SC[C@@H]4C)cc(C)n1 [D]	mg/kg	0.03
CC[C@H]1COc2c(-c3cc(C)nc(C)c3)c(F)cc3c(=O)c(C(=O)O)cn1c23 [Compound C]	mg/kg	0.41

Input Cc1cc(-c2c(F)c(F)c3c(=O)c(C(=O)O)cn4c3c2OC[C@@H]4C)cc(C)n1 [A] . Output ED50: 0.13

Input Cc1cc(-c2c(F)cc3c(=O)c(C(=O)O)cn4c3c2OC[C@@H]4C)cc(C)n1 [B] . Output ED50: 0.03

Input CCn1cc(C(=O)O)c(=O)c2cc(F)c(-c3cc(C)nc(C)c3)cc21 [Q, reference compound] . Output ED50: 1.38

----------
Assay: Serum levels in monkeys after oral dosing
Assay type: in vivo
Conditions: monkey, serum, 25 mg/kg oral, read-out: maximum concentration (serum)
measurementType: Cmax (ng/mL)
# output: bare number, implied unit ng/mL

Input Cc1cc(-c2c(F)cc3c(=O)c(C(=O)O)cn4c3c2OC[C@@H]4C)cc(C)n1 [B] . Output Cmax: 25000

----------
Let's look at some molecules and their measured MIC.
Test system: Pseudomonas aeruginosa
Assay: In vitro antimicrobial activity, microplate dilution MIC, Pseudomonas aeruginosa
Assay type: cell-based
Settings: 10^5 microorganism/ml, read-out: MIC (minimal inhibitory concentration), PA
# output: bare number, implied unit µg/mL

Worked cases, answers included:
molecule	MIC [µg/mL]
Cc1cc(-c2c(F)cc3c(=O)c(C(=O)O)cn4c3c2SC[C@@H]4C)cc(C)n1	2
CC1COc2c(N3CCN(C)CC3)c(F)cc3c(=O)c(C(=O)O)cn1c23 (stereo not drawn) [P, reference compound]	0.5
CCn1cc(C(=O)O)c(=O)c2cc(F)c(-c3cc(C)nc(C)c3)cc21 [Q, reference compound]	4
CC[C@H]1COc2c(-c3cc(C)nc(C)c3)c(F)cc3c(=O)c(C(=O)O)cn1c23	4
Cc1cc(-c2c(F)cc3c(=O)c(C(=O)O)cn4c3c2OC[C@@H]4C)cc(C)n1	4

Here is the next item to consider.
Input `Cc1cc(-c2c(F)c(F)c3c(=O)c(C(=O)O)cn4c3c2OC[C@@H]4C)cc(C)n1` . Output MIC: 8
